Taken from ChEMBL document CHEMBL4602604.

assay: in vitro; conditions: Beagle, dog, hepatocytes
Description: Half life in Beagle dog hepatocytes at 1 uM by LC-MS/MS analysis
measurementKind: half-life at 1 µM

Recorded result, CN1CCN(c2cc(-c3ccncc3)c(-c3ccc4ccccc4c3)nn2)CC1 , half-life at 1 µM: > 2 h
